Biological target: human GPR40 (Homo sapiens, UniProt O14842)
Sequence (O14842 whole entry): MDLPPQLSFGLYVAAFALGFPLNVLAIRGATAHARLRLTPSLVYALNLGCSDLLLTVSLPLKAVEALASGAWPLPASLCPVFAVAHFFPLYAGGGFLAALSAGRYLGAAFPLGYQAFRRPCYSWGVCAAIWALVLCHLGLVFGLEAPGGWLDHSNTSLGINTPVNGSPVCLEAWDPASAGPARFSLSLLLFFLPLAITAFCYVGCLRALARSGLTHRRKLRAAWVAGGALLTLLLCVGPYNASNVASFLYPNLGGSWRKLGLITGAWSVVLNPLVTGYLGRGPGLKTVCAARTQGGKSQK
Experiment: Inositol Phosphate Turnover (IP1) Assay 1
Conditions: Human IP1 Assay 1, EC50, nM, HEK cells stably expressing human GPR40
property: EC50 (nM)

1. Cc1ccccc1-c1cc(F)c(C2CCc3cc4c(cc3O2)OC[C@H]4CC(=O)O)cc1-c1ccccc1C (mixture of isomers) [Example 59]: 2520

(A) CC#C[C@@H](CC(=O)O)c1ccc2c(c1)CCC(c1ccc(-c3cc(OC)ccc3F)cc1)O2 (mixture of isomers) [Example 51]
(B) CC#CC(CC(=O)O)c1ccc2c(c1)CCC(c1cccc(Oc3ccc(C#N)cc3)c1)O2 (mixture of isomers) [Example 23]
Given the listed items, does A or B have the lesser reported EC50? In your reply, give the label of the chosen option. B

* * *

Target: human GPR40 (Homo sapiens)
Experiment: Inositol Phosphate Turnover (IP1) Assay 2
Assay type: cell-based
Parameters: expressed in transfected cells
Details: HEK cells stably expressing human GPR40, Table 2, read-out: Human IP1
property: EC50 (nM)

1. O=C(O)C[C@H](c1ccc2c(c1)OC(c1ccc(-c3ccccc3)cc1)CC2)C1CC1 (mixture of isomers): 130

(I) COc1ccc(F)c(-c2ccc(C3CCc4ccc([C@H](C5CC5)[C@H](C)C(=O)O)cc4O3)nc2C(OC)C(C)(C)C)c1 (single isomer, unassigned) [Example 135a]
(II) COc1ccc(F)c(-c2cc(F)c(C3CCc4ccc([C@H](C5CC5)[C@H](C)C(=O)O)cc4O3)nc2C)c1 (single isomer, unassigned) [Example 113a]
(III) COc1cccc(-c2ccc(C3CCc4ccc([C@@H](CC(=O)O)C5CC5)cc4O3)c(F)c2)c1 (mixture of isomers)
(IV) COc1cncc(-c2ccc(C3CCc4ccc([C@@H](CC(=O)O)C5CC5)cc4O3)cc2)n1 (stereo partly drawn)
(V) COc1ccc(F)c(-c2ccc(C3CCc4ccc(C(C)C(C)C(=O)O)cc4O3)cc2)c1 (single isomer, unassigned) [Example 146]
Please give the order of these molecules when sorted by EC50, largest value leading. Please list the labels according to the requested order. IV, V, III, II, I
(IV: 920 nM, V: 270 nM, III: 10.6 nM, II: 3.9 nM, I: 0.8 nM)

* * *

Molecular target: human GPR40 (Homo sapiens, UniProt O14842)
Assay: Inositol Phosphate Turnover (IP1) Assay 2
Assay type: cell-based
Design: expressed in transfected cells
Settings: HEK cells stably expressing human GPR40, Table 3, read-out: Human IP1 activity
property: EC50 (nM)

1. COc1ccc(F)c(-c2ccc(C3COc4ccc([C@H](C5CC5)[C@H](C)C(=O)O)cc4O3)cc2OC(F)(F)F)c1 (mixture of isomers) [Example 169]: 9.5
2. COc1ccc(F)c(-c2ccc(C3COc4ccc([C@H](C5CC5)[C@H](C)C(=O)O)cc4O3)cc2)c1 (stereo partly shown) [Example 170]: 0.17
3. COc1ccc(F)c(-c2ccc(C3COc4ccc([C@@H](CC(=O)O)C5CC5)cc4O3)cc2)c1 (single isomer, unassigned) [Example 167]: 31
4. COc1ccc(F)c(-c2ccc(C3COc4ccc([C@H](C5CC5)[C@H](C)C(=O)O)c(F)c4O3)cc2)c1 (stereo partly shown) [Example 184]: 1.6

(A) COc1ccc(F)c(-c2ccc([C@@H]3COc4ccc([C@H](C5CC5)[C@H](C)C(=O)O)cc4O3)cc2C(OC)C(C)(C)C)c1 (stereo partly shown) [Example 163]
(B) CC#C[C@@H](CC(=O)O)c1ccc2c(c1)OCC(c1ccc(-c3cc(OC)ccc3F)cc1)O2 (stereo partly shown) [Example 175]
(C) CC#C[C@@H](CC(=O)O)c1ccc2c(c1)OCC(c1ccc(-c3cc(OC)ccc3F)cc1)O2 (single isomer, unassigned) [Example 177]
Please give the order of these compounds when sorted by EC50, largest value leading. Please list the labels according to the requested order. C, B, A

* * *

Target: human GPR40 (Homo sapiens, UniProt O14842)
Assay: Inositol Phosphate Turnover (IP1) Assay 2
Assay type: cell-based
Parameters: expressed in transfected cells
Conditions: HEK cells stably expressing human GPR40, Table 2, read-out: Human IP1
property: EC50 (nM)

1) COc1ccc(F)c(-c2ccc(C3CCc4ccc(C(C5CCC5)C(C)C(=O)O)cc4O3)cc2)c1 (single isomer, unassigned) [Example 152]: 774
2) COc1ccc(F)c(-c2ccc(C3CCc4ccc(C(CC(=O)O)C5CC5)cc4O3)cc2C2=CCCC2(C)C)c1 (single isomer, unassigned) [Example 101c]: 58
3) COc1ccc(F)c(-c2ccc(C3CCc4ccc(C(C)CC(=O)O)cc4O3)cc2)c1 (single isomer, unassigned) [Example 138]: 1200
4) COc1cc(-c2cnc(C3CCc4ccc([C@H](C5CC5)[C@H](C)C(=O)O)cc4O3)c(F)c2)ccn1 (mixture of isomers): 11
5) COc1ccc(F)c(-c2ccc(C3CCc4ccc([C@H](C5CC5)[C@H](C)C(=O)O)cc4O3)c(C(F)(F)F)n2)c1 (mixture of isomers): 17
6) COc1ccc(F)c(-c2ccc(C3CCc4ccc(C(CC(=O)O)C5CC5)nc4O3)cc2)c1 (centres unmarked): 217
7) COc1ccc(F)c(-c2cnc(C3CCc4ccc([C@H](C5CC5)C(C)C(=O)O)cc4O3)nc2)c1 (single isomer, unassigned) [Example 124b]: 70
8) COc1cc(-c2cnc(C3CCc4ccc([C@H](C5CC5)[C@H](C)C(=O)O)cc4O3)c(F)c2)c(F)cn1 (single isomer, unassigned) [Example 110b]: 1.6
9) CSc1cccc(-c2ccc(C3CCc4ccc([C@@H](CC(=O)O)C5CC5)cc4O3)cc2)c1 (some centres unmarked): 165
10) COc1ccc(F)c(-c2ccc(C3CCc4ccc([C@@H](CC(=O)O)C5CC5)cc4O3)cc2)c1 (single isomer, unassigned) [Example 61]: 36

(I) COc1ccc(F)c(-c2ccc(C3CCc4ccc([C@H](C5CC5)[C@H](C)C(=O)O)cc4O3)nc2C(OC)C(C)(C)C)c1 (single isomer, unassigned) [Example 135b]
(II) COc1cc(-c2ccc(C3CCc4ccc([C@H](C5CC5)[C@H](C)C(=O)O)cc4O3)c(F)c2)ccn1 (mixture of isomers)
Given the listed items, does I or II have the lesser reported EC50? In your reply, give the label of the chosen option. II

(P) COc1cncc(-c2ccc(C3CCc4ccc([C@@H](CC(=O)O)C5CC5)cc4O3)c(F)c2)c1 (mixture of isomers)
(Q) COc1ccc(F)c(-c2ccc(C3CCc4ccc(C(C)C(C)C(=O)O)cc4O3)cc2)c1 (single isomer, unassigned) [Example 147a]
(R) COc1cccc(-c2ccc(C3CCc4ccc([C@@H](CC(=O)O)C5CC5)cc4O3)cc2)c1 (some centres unmarked)
(S) COc1ccc(F)c(-c2ccc([C@H]3CCc4ccc([C@@H](CC(=O)O)C5CCC5)cc4O3)cc2)c1 (single isomer, unassigned)
Please give the order of these compounds when sorted by EC50, largest value leading. Please list the labels according to the requested order. P, S, R, Q

* * *

Target: human GPR40 (Homo sapiens, UniProt O14842)
Assay: Inositol Phosphate Turnover (IP1) Assay 2
Type: cell-based
Design: expressed in transfected cells
Settings: HEK cells stably expressing human GPR40, Table 3, read-out: Human IP1 activity
property: EC50 (nM)

1) COc1ccc(F)c(-c2ccc([C@H]3COc4ccc([C@H](C5CC5)[C@H](C)C(=O)O)cc4O3)cc2Cl)c1: 16.3
2) COc1ccc(F)c(-c2ccc([C@@H]3COc4ccc([C@H](C5CC5)[C@H](C)C(=O)O)cc4O3)nc2C(F)(F)F)c1: 8.2

(1) C[C@H](C(=O)O)[C@H](c1ccc2c(c1)OC(C1CN(Cc3cc(C(F)(F)F)ccc3C(F)(F)F)C1)CO2)C1CC1 (single isomer, unassigned) [Example 187]
(2) COc1ccc(F)c(-c2ccc(C3COc4ccc([C@H](C5CC5)[C@H](C)C(=O)O)cc4O3)cc2OC(F)(F)F)c1 (single isomer, unassigned) [Example 171]
API: POST /compare with 1 and 2 ; response names the item with higher EC50. In your reply, give the label of the chosen option. 1

* * *

Biological target: human GPR40 (Homo sapiens, UniProt O14842)
Experiment: Inositol Phosphate Turnover (IP1) Assay 2
Type: cell-based
Design: expressed in transfected cells
Settings: HEK cells stably expressing human GPR40, Table 3, read-out: Human IP1 activity
pEC50: −log10 of the molar value.
property: pEC50

(A) COc1ccc(F)c(-c2ccc(C3COc4ccc([C@H](C5CC5)[C@H](C)C(=O)O)cc4O3)cc2)c1 (single isomer, unassigned) [Example 173]
(B) COc1ccc(F)c(-c2ccc(C3COc4ccc([C@H](C5CC5)[C@H](C)C(=O)O)cc4O3)cc2OC(F)(F)F)c1 (single isomer, unassigned) [Example 172]
API: POST /compare with A and B ; response names the item with higher pEC50. In your reply, give the label of the chosen option. A

(1) COc1ccc(F)c(-c2ccc(C3COc4ccc([C@H](C5CC5)[C@H](C)C(=O)O)cc4O3)nc2)c1 (single isomer, unassigned) [Example 160]
(2) COc1ccc(F)c(-c2ccc([C@@H]3COc4ccc([C@H](C5CC5)[C@H](C)C(=O)O)cc4O3)cc2-c2cccc3ccn(C)c23)c1 [Example 180]
(3) COc1ccc(F)c(-c2ccc([C@@H]3COc4ccc([C@H](C5CC5)[C@H](C)C(=O)O)cc4O3)cc2Cl)c1 [Example 178]
Please give the order of these compounds when sorted by pEC50, largest value leading. Please list the labels according to the requested order. 1, 2, 3
(1: 8.80, 2: 8.32, 3: 7.97)
